Each entry below lists one item and its recorded pIC50 value.
# SUBJECT OF TEST: human TRPV4 (Homo sapiens)
# Construct: expressed in transfected cells; host or cells: BHK/AC9 cells transduced with BacMam virus
# Sequence (Q9HBA0 whole entry): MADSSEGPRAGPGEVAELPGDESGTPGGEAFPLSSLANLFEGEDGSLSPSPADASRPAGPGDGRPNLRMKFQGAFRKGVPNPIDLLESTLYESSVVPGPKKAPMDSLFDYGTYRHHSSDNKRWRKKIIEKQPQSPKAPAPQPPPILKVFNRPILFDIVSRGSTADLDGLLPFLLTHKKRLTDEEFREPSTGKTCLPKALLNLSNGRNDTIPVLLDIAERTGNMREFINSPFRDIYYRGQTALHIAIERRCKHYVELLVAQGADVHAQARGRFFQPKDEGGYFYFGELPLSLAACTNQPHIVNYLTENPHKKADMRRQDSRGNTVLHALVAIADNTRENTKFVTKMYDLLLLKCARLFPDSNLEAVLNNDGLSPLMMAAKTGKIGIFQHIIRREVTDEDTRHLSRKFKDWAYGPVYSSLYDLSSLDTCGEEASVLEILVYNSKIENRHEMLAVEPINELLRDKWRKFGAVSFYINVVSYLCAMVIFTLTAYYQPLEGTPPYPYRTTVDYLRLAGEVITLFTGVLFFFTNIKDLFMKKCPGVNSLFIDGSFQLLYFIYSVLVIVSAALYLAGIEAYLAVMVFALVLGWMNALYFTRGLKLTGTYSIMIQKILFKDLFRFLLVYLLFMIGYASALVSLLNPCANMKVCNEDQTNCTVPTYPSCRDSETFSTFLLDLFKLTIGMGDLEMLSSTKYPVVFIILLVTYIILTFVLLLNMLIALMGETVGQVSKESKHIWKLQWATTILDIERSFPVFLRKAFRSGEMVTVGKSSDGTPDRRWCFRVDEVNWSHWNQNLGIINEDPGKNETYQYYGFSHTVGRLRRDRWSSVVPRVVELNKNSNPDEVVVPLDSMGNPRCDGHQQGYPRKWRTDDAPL
# PROTOCOL DETAILS: FLIPR assay for hTRPV4 expressed in BHK cells: inhibition of Agonist Compound-induced calcium signal
# Assay type: cell-based
# EXPERIMENTAL CONDITIONS: hTRPV4 in BHK/AC9 cells, FLIPR calcium signal, agonist at EC80; reported as range class; read-out: IC50
pIC50: −log10 of the molar value.
METRIC: pIC50

N#Cc1ccc(O[C@H]2CN(S(=O)(=O)c3ccc(C(F)(F)F)cc3C#N)C[C@@]2(O)CO)c(O)c1 : 7.00 to 8.00
N#Cc1ccc(O[C@H]2CN(S(=O)(=O)c3ccc(C(F)(F)F)cc3C#N)C[C@@]2(O)CO)c(Cl)c1 : 8.00 to 10.00
N#Cc1ccc(O[C@H]2CN(S(=O)(=O)c3ccc(-c4ccccc4)cc3C#N)C[C@@]2(O)CO)cc1F : 7.00 to 8.00
N#Cc1cc(C(F)(F)F)ccc1S(=O)(=O)N1C[C@H](Oc2ccc(C(F)(F)F)cc2)[C@](O)(CO)C1 : 8.00 to 10.00
CC#Cc1ccc(S(=O)(=O)N2C[C@H](Oc3ccc(C#N)c(F)c3)[C@](O)(CO)C2)nc1 : 8.00 to 10.00
N#Cc1cc(C(F)(F)F)ccc1S(=O)(=O)N1C[C@H](Oc2ccc(Cl)c(Cl)c2)[C@](O)(CO)C1 : 7.00 to 8.00
C[C@H](N)[C@]1(O)CN(S(=O)(=O)c2ccc(Cl)cn2)C[C@@H]1Oc1ccc(C#N)c(F)c1 [Example 257, 2,2,2-trifluoroacetate] : 7.00 to 8.00
N#Cc1ccc(O[C@H]2CN(S(=O)(=O)c3cccc(OC(F)(F)F)n3)C[C@@]2(O)CO)cc1F : 7.00 to 8.00
